meta.source: ChEMBL document CHEMBL4411300

Tested on: Trypanosoma cruzi
protocol text: Trypanocidal activity against Trypanosoma cruzi TINF/CH/1956/Tulahuen DTU 6 epimastigotes after 48 to 72 hrs by resazurin dye based assay
Assay type: functional, organism-based
pIC50: −log10 of the molar value.
Item-by-item account of pIC50

| smiles input | experimental target | pIC50 |
| --- | --- | --- |
| Cl.Cl.Cl.Cl.Cl.Cl.c1ccc2nc(CNCCN(CCNCc3ccc4ccccc4n3)CCNCc3ccc4ccccc4n3)ccc2c1 | Trypanosoma cruzi | 4.71 |
| c1ccc2cc(CNCCN(CCNCc3ccc4ccccc4c3)CCNCc3ccc4[nH]ncc4c3)ccc2c1 | Trypanosoma cruzi | 4.83 |
| NCCN(CCN)CCNCc1ccc2ccc3cccc4ccc1c2c34 | Trypanosoma cruzi | 4.66 |
| NCCCNCCN(CCNCCCN)CCNCCCN | Trypanosoma cruzi | 3.69 |
| CN(C)c1cccc2c(S(=O)(=O)NCCN(CCN)CCN)cccc12 | Trypanosoma cruzi | 4.06 |
| c1ccc(-c2n[nH]cc2CNCCN(CCNCc2c[nH]nc2-c2ccccc2)CCNCc2c[nH]nc2-c2ccccc2)cc1 | Trypanosoma cruzi | 4.05 |
| NCCN(CCN)CCNCc1ccc2ccccc2c1 | Trypanosoma cruzi | 4.87 |
| NCCN(CCN)CCNCc1c2ccccc2cc2ccccc12 | Trypanosoma cruzi | 4.26 |
| Cl.Cl.Cl.NCCN(CCN)CCNCc1ccc2c(c1)Cc1ccccc1-2 | Trypanosoma cruzi | 4.51 |
| c1ccc2c(CNCCN(CCNCc3ccnc4ccccc34)CCNCc3ccnc4ccccc34)ccnc2c1 | Trypanosoma cruzi | 4.63 |

----------
Item-by-item account of selectivity ratio
protocol text: Selectivity index, ratio of IC50 for African green monkey Vero cells to IC50 for Trypanosoma cruzi IRHOD/CO/2008/SN3 DTU 1 epimastigotes
Type: toxicity
test parameters: read-out: Ratio IC50

| smiles input | selectivity ratio |
| --- | --- |
| c1ccc2c(CNCCN(CCNCc3ccnc4ccccc34)CCNCc3ccnc4ccccc34)ccnc2c1 | 7.9 |
| Cl.Cl.Cl.Cl.Cl.Cl.c1ccc2nc(CNCCN(CCNCc3ccc4ccccc4n3)CCNCc3ccc4ccccc4n3)ccc2c1 | 112 |
| NCCN(CCN)CCNCc1ccc2ccccc2c1 | 25.4 |
| Cl.Cl.Cl.NCCN(CCN)CCNCc1ccc2c(c1)Cc1ccccc1-2 | 91.3 |

----------
System: Trypanosoma cruzi
protocol text: Trypanocidal activity against Trypanosoma cruzi IRHOD/CO/2008/SN3 DTU 1 amastigotes infected in African green monkey Vero cells after 72 hrs by Giemsa-staining based microscopic assay
Assay type: functional, organism-based
test parameters: IRHOD/CO/2008/SN3 DTU 1, Vero
Item-by-item account of IC50

| smiles input | IC50 / µM |
| --- | --- |
| NCCN(CCN)CCNCc1ccc2ccccc2c1 | 21.1 |
| Cl.Cl.Cl.Cl.Cl.Cl.c1ccc2nc(CNCCN(CCNCc3ccc4ccccc4n3)CCNCc3ccc4ccccc4n3)ccc2c1 | 1.6 |
| Cl.Cl.Cl.NCCN(CCN)CCNCc1ccc2c(c1)Cc1ccccc1-2 | 19.7 |

----------
protocol text: Selectivity index, ratio of IC50 for African green monkey Vero cells to IC50 for Trypanosoma cruzi TINF/CH/1956/Tulahuen DTU 6 epimastigotes
Format: toxicity
test parameters: read-out: Ratio IC50
Item-by-item account of selectivity ratio
readout type: selectivity ratio

| smiles input | quantitative readout |
| --- | --- |
| Cl.Cl.Cl.NCCN(CCN)CCNCc1ccc2c(c1)Cc1ccccc1-2 | 57.5 |
| NCCN(CCN)CCNCc1ccc2ccccc2c1 | 14.8 |
| Cl.Cl.Cl.Cl.Cl.Cl.c1ccc2nc(CNCCN(CCNCc3ccc4ccccc4n3)CCNCc3ccc4ccccc4n3)ccc2c1 | 84.8 |
| c1ccc2c(CNCCN(CCNCc3ccnc4ccccc34)CCNCc3ccnc4ccccc34)ccnc2c1 | 8.5 |
